target: human SCD5 (Homo sapiens (Human), UniProt Q86SK9); test: Yeast growth assay, strain expressing human SCD5 as the sole desaturase (reduced growth as surrogate for SCD inhibition); assay type: cell-based; settings: yeast with OLE1 deleted expressing human SCD5 from a plasmid; growth read as OD600 after 40 h at 30° C.; top drug concentration 33.3 μM
Sequence (Q86SK9 whole entry): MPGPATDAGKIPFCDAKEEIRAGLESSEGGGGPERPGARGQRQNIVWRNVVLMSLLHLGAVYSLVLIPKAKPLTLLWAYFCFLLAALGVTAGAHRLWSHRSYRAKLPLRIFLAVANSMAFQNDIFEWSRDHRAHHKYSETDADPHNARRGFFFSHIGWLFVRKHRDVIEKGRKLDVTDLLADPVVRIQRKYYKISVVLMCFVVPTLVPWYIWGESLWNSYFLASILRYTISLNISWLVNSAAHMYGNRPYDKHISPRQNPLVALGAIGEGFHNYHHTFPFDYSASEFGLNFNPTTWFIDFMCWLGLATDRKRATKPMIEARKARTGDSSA
Attribute measured: IC50

O=C(Nc1cnn(Cc2ccccc2)c1)c1cc(-c2ccc(F)cc2F)on1; > 45 µM
O=C(c1cc(-c2ccc3c(c2)OCO3)on1)N1CCc2ccccc2C1; > 45 µM
CCc1cc(C(=O)Nc2cnn(Cc3cccc(F)c3)c2)no1; 1 µM

input: # IC50 lookup, item CC1(c2cc(C(=O)Nc3cnn(Cc4cccc(F)c4)c3)no2)COC1
output: > 45 µM

input: Reported IC50 for O=C(c1cc(-c2ccncc2)on1)N1CCC(c2ccccc2)CC1 : what is it?
output: 1.54 µM

input: Fill in the blank: the reported IC50 of Cn1ncc2cccc(C3CCCN3C(=O)c3cc(-c4ccc5c(c4)OCO5)on3)c21 (stereo not drawn) is ____.
output: > 45 µM

input: Requested read-out: IC50. Entry: O=C(c1cc(-c2ccccc2)on1)N1CCC(c2ccccc2)C1 (stereo not drawn)
output: 2.6 µM

input: Please report the recorded IC50 for O=C(Nc1cnn(Cc2ccccc2)c1)c1cc(-c2c(F)cccc2F)on1 .
output: > 45 µM

input: Would you mind telling me what IC50 value was observed for O=C(Nc1cnn(Cc2cnccc2C(F)(F)F)c1)c1cc(-c2ccncc2)on1 ?
output: > 45 µM
